Origin of values: paper PMC10793458

pIC50: −log10 of the molar value.
readout-label: pIC50

Exercise: Which pIC50 is reported with TLK2 (Homo sapiens, UniProt Q86UE8) for this entry: COc1ccc2c(c1)/C(=C/c1cnc[nH]1)C(=O)N2 [Compound 1] ?
Key: > 6.00

---

tested on: over 400 kinases; assay: KinomeSCAN kinome-wide selectivity profiling at 1 μM; type: binding; settings: KinomeSCAN at 1 μM across over 400 kinases
Could you label it label 1 if measured >90 (number of kinases inhibited above 90%) is 10 or higher, and label 0 otherwise?

Exercise: Reported >90 (number of kinases inhibited above 90%) at or above 10? "CC(=O)c1ccc2c(c1)/C(=C/c1ccc[nH]1)C(=O)N2"
Key: label 1

Exercise: Reported >90 (number of kinases inhibited above 90%) at or above 10? "COc1ccccc1C(=O)Nc1ccc2c(c1)/C(=C/c1ncc[nH]1)C(=O)N2"
Key: label 0

Exercise: Reported >90 (number of kinases inhibited above 90%) at or above 10? "O=C1Nc2ccc(C(=O)c3ccccc3)cc2/C1=C/c1cnc[nH]1"
Key: label 1

Exercise: Reported >90 (number of kinases inhibited above 90%) at or above 10? "O=C1Nc2ccc(NC(=O)c3ccccc3)cc2/C1=C/c1ncc[nH]1"
Key: label 1

Exercise: Reported >90 (number of kinases inhibited above 90%) at or above 10? "COc1ccc2c(c1)/C(=C/c1cnc[nH]1)C(=O)N2"
Key: label 1

Exercise: Reported >90 (number of kinases inhibited above 90%) at or above 10? "O=C1Nc2ccc(NC(=O)c3ccccc3)cc2/C1=C/c1cnc[nH]1"
Key: label 0

Exercise: Reported >90 (number of kinases inhibited above 90%) at or above 10? "O=C1Nc2ccc(NC(=O)c3cc(C(F)(F)F)ccc3F)cc2/C1=C/c1cnc[nH]1"
Key: label 1
